Target Under Test: T1, Murine FAP ectodomain + poly-lys-tag + his6-tag (murine, UniProt P97321 27-761)
T1 construct: also called mu FAP
Experiment: SPR (ProteOn XPR36), purified Fab, monovalent binding
Catalogue of binders with associated Kd
Outcome Measure: Kd (nM)

# Binder, Measured Number
records = [
    ("20G8 Fab (Fab, V domains shown, also called clone 20G8) VH: EVQLLESGGGLVQPGGSLRLSCAASGFTFSSYAMSWVRQAPGKGLEWVSAIIGSGSRTYYADSVKGRFTISRDNSKNTLYLQMNSLRAEDTAVYYCAKGWFGGFNYWGQGTLVTVSS VL: EIVLTQSPGTLSLSPGERATLSCRASQSVTSSYLAWYQQKPGQAPRLLINVGSRRATGIPDRFSGSGSGTDFTLTISRLEPEDFAVYYCQQGIMLPPTFGQGTKVEIK", 2.8),
    ("5B8 Fab (Fab, V domains shown, also called clone 5B8) VH: EVQLLESGGGLVQPGGSLRLSCAASGFTFSSYAMSWVRQAPGKGLEWVSAIWGGGRSTYYADSVKGRFTISRDNSKNTLYLQMNSLRAEDTAVYYCAKGWFGGFNYWGQGTLVTVSS VL: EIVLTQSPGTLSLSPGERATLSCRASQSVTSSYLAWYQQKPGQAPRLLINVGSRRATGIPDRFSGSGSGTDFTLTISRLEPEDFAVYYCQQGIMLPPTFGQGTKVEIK", 3.2),
]
